Compiled notes: published pIC50 values involving Matrix metalloproteinase-9 (Homo sapiens, UniProt P14780).
pIC50: −log10 of the molar value.
observedProperty: pIC50

Example cases with answers are listed next.
# compound, experimentalTarget, observedProperty, endpointValue
rows = [
    ("CN(CC(=O)NO)S(=O)(=O)c1ccc(OCC#Cc2ccc(Cl)cc2)cc1", "Matrix metalloproteinase-9 (Homo sapiens, UniProt P14780)", "pIC50", 5.62),
    ("CC#CCOc1ccc([S+]([O-])C(C(=O)NO)C(C)C)cc1 (centres unmarked)", "Matrix metalloproteinase-9 (Homo sapiens, UniProt P14780)", "pIC50", 6.40),
    ("CCCCOc1ccc(S(=O)(=O)N2CCc3c([nH]c4ccccc34)C2C(=O)NO)cc1 (racemic)", "Matrix metalloproteinase-9 (Homo sapiens, UniProt P14780)", "pIC50", 8.22),
    ("COc1ccc(S(=O)(=O)N(Cc2ccccc2)[C@@H]2CCCC[C@H]2C(=O)NO)cc1 (relative stereo)", "Matrix metalloproteinase-9 (Homo sapiens, UniProt P14780)", "pIC50", 6.74),
    ("CC#CCOc1ccc(SC(CCCCCC)C(=O)NO)cc1 (centres unmarked)", "Matrix metalloproteinase-9 (Homo sapiens, UniProt P14780)", "pIC50", 5.52),
]

[1] O=C(O)C1c2[nH]c3ccccc3c2CCN1S(=O)(=O)c1ccc(Oc2ccc(Cl)cc2)cc1 (racemic)
[2] CC#CCSc1ccc(S(=O)(=O)N(C)CC(=O)NO)cc1
INPUT: Identify the item whose pIC50 is the smaller number: 1 or 2 Your answer should be the label of the entry you select.
OUTPUT: 1

[A] CCCCCCCCCCOc1ccc(C(=O)CC(CCN2C(=O)c3ccccc3C2=O)C(=O)O)cc1 (centres unmarked)
[B] CC#CCOc1ccc(S(=O)(=O)C(CCc2ccc(OCCN3CCCCC3)cc2)C(=O)NO)cc1 (centres unmarked)
[C] O=C(O)C1c2[nH]c3ccccc3c2CCN1S(=O)(=O)c1ccc2ccccc2c1 (racemic)
INPUT: Order by pIC50, ascending. Use the labels to give the requested order.
OUTPUT: C, B, A
(C: 4.21, B: 5.60, A: 6.44)

###

pIC50: −log10 of the molar value.
Listing of pIC50 toward Matrix metalloproteinase-9 (Homo sapiens), each taken from a published source.
observedProperty: pIC50

# molecule, pIC50
records = [
    ("CC#CCOc1ccc(S(=O)(=O)C(C)(Cc2cccnc2)C(=O)NO)cc1 (stereo not shown)", 6.85),
]

[A] CC#CCOc1ccc(S(=O)(=O)N2CC(CNC(=O)OC(C)(C)C)SC(C)(C)C2C(=O)NO)cc1 (stereo not shown)
[B] CC#CCOc1ccc([S@@+]([O-])[C@@H](CCCCCC)C(=O)NO)cc1
INPUT: Returns the identifier with the smallest measured pIC50 among A and B . Indicate which entry you chose by stating its label.
OUTPUT: B
(B: 6.00, A: 6.97)

[I] COc1ccc(Oc2ccc(S(=O)(=O)N3CCc4c([nH]c5ccccc45)C3C(=O)O)cc2)cc1 (racemic)
[II] CC#CCOc1ccc([S+]([O-])C(C(=O)NO)C2CCCCC2)cc1 (stereo not shown)
INPUT: I or II : whose pIC50 is greater? Identify your pick by its label.
OUTPUT: II
(II: 6.47, I: 5.66)
